Biological target: T1, WCGp80 (Wildcat Gp80, DnaB-type helicase) (Mycobacteriophage Wildcat, UniProt Q19XY0 1-441)
T1 sequence: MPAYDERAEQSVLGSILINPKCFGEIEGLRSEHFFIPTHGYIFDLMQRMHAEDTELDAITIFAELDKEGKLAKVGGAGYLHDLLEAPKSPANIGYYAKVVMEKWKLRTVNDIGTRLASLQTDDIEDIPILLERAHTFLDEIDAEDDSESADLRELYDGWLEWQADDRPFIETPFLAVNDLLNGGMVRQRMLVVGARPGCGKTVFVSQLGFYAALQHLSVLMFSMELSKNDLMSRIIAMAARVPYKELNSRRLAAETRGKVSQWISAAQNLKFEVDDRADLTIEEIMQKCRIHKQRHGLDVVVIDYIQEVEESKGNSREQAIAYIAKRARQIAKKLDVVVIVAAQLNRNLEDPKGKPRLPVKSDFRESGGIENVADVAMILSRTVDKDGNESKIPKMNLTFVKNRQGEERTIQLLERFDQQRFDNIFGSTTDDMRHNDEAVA
Assay: tryptophan fluorescence quenching; 40 nM protein; S6 Fig legend gives 152 nM; Binding buffer, pH and temperature not given in the material; Trp quenching ex 280/em 340 nm (helicase assay buffer E: 50 mM Tris-HCl pH 8.0, 50 mM KCl, 2 mM DTT, 0.25 mg/ml BSA, 4 mM MgCl2, 4 mM ATP, 4% sucrose, 37 C)
Details: protein: recombinant; tags: N-terminal His6 (pQE30); chain copies: 6; single strand
measurement type: Kd (nM)

INSERT INTO assay_data (binder, quantitative_result) VALUES
  ('60-mer (oligo2) (ssDNA) DNA: CGGTCGAGTCTAGAGGAGCCTTTTTTTTTTTTTTTTTTTTTTTTTTTTTTTTTTTTTTTT', 164);
